# test.method.notes: yeast display, Sf9 membrane polyspecificity reagent, FACS + sequencing; frameworks hold sequencing errors
quantity.kind: polyreactivity (PSR sort gate)

Use the examples below as a reference point.
sequence.content	polyreactivity (PSR sort gate)
QVQLVESGGGLVQAGGSLRLSCAASGSTFLVYARGWYRQAPGKERELVADITSRGGSTYYADSVKGRFTISRDNAKNTVYLQMNSLKPEDTAVYYCAALKRVVLFDYWGQGSQVTVSS	low polyreactivity
QVQLVESGGGLVQAGGSLRLSCAASGSTFNFYAMGWYRQAPGKEREFVAAITSSGDSTYYADSVKGRFTISRDHAKTTVYLQMNSLKPEDTAVYYCAARLRWRYSYDYWGQGTQVTVSS	high polyreactivity
QVQLVESGGGLVQAGGSLRLTCAASGRIFWSYAMGWYRQAPGKERELVARITTGSSTNYADSVKGRFTISRDNAKNTVYLQMNSLKPEDTAVYYCAADVSNYYFAYYYWGQGTQVTVSS	low polyreactivity
QVQLVESGGGLVQAGGSLRLSCAASGIIFINYVMGWYRQAPGKERELVAAISIGGGRTYYADSVKGRFTISRDNAKNTVYLQMNSLKPEDTAVYYCAAEYFYGYKDVYDYWGQGTQVTVSS	high polyreactivity
QVQHVESGARLVQAGGSLRLSCAASGSTFYRNTMGWYRQAPGTERELVAAISSGGSTNYADSVTGRFTISRDNAKNTVYLQMNSLKPEDTGVYYCAAAIRVISDGWYYYWYDYWGQGTPVTVSS	high polyreactivity
QVKLVESGGGLVQAGGRLRLSCDAYGIILVGYDMGWYRPAPGKERELVATISSGSSTYYEDSVKGRFTISRDNAKNTVYLQMNSLKPEDTAVYYCNADHAGPYWRFHDDDYWGQGTKVTVSS	low polyreactivity
QVQLVESGGGLVQAGGSLRLSCAASGRIFSQNAMGWYRQAPGKERELVAVISRGGSTNYADSVKGRFTISRDNAKNTVYLQMNSLKPEDTAVYYCAADYAYIRSVWKWFIGDYWGQGTQVTVSS	low polyreactivity
QVQLVESGGGLLQAGGSLRLSCAASGSTFSSYAMGWYRPAPGKERELVAAITSSGGSTYYADSVKGRFTISRDNAKNTVYLKLNSLKPEDTAVYYCAAADVIFWLYYYWGQGTQVTVSS	low polyreactivity
QVQLVESGGGLVQAGGSLRLSCAASGSILYVYAMGWYRQAPGKERELVAVITSGGSTNYADSVKGRFTISRDNAKNTVYLQMHSLKPEDSAVYHCAAYYDYDWKYAPSFDYGYWGQGTQVTVSS	low polyreactivity
HVQLVESGGGLVQAGGSLRLSCAASGRTFGAYTMGWYRQAPGKERELVAAINWSGGDTYYAYSVKGRFTISRDNAKNTVYLQMNSQKPEDTAVYYCNAEPRYGTYDYWGQGTQVTVSS	low polyreactivity

Now consider a different sequence.
Ask: Requested read-out: polyreactivity (PSR sort gate). Entry: QVQLVESGGGLVQAGGSLRLSCAASGRIFTINAMGWYRQAPGKERELVAAITGSAASTYYADSVKGRFTISRDNAKNTVYLQMNSLKPEDTAVYYCAAGYRRIPYEYWGQATQVTVSS
Result: high polyreactivity

---

# test.method.notes: yeast display, Sf9 membrane polyspecificity reagent, FACS + sequencing; frameworks hold sequencing errors
quantity.kind: polyreactivity (PSR sort gate)

Use the examples below as a reference point.
sequence.content	quantity.kind	measured
QVQLVESGGGLVQAGGSLRLSCAASGRTFYDYAMGWYRQAPGKERELVAGIRWSGGSTYYADSVKGRFTISRDNAKNTVFLQMNSLKPEDTAVYYCAADWFAGVAADVEYDYWGQGTQVTVSS	polyreactivity (PSR sort gate)	low polyreactivity
QVQLVESAGGLVQEGGSLRLSCAASVIFWANVMGWYRQAPGKEWELVDAITSGGSTNYADSVKGRFTISRDNAKNTVYLQMNSLKPEDTAVYYCIKPWYSYRYGGVGYGYWGQGTQVTVSS	polyreactivity (PSR sort gate)	low polyreactivity
QVQLVESGGGLVQAGGSLRLSCAASGRTFPLYAMGWYRQAPGKERELVAAISYICGSTYYADSVKGLFTISRDNAKNTVYLQMNSLKPEDTAVYYCNADYNYAYDYWGQGTQVTVSS	polyreactivity (PSR sort gate)	low polyreactivity
QVQLVESGGGLVQAGGSLRLSCAASGFTLRYYAMGWYRQAPGKERELVADISWSGGRTYYADSVKGRFTISRDNAKNTVYLQMNSLKPEDTAVYYCAAVRYYAHVYKSVGYDYWGQGTQVTVSS	polyreactivity (PSR sort gate)	high polyreactivity

Ask: Requested read-out: polyreactivity (PSR sort gate). Entry: QVQLVESGGGLVQAGGSLRLSCAASGFTSRTYAMGWYRQAPGKERELVAAITFSGGSTYYADSVKGRFTISRDNAKNTVYLQMNSLKPEDTAVYYCARDGLWYNAIWEYDYWGQGTQVTVSS
Result: high polyreactivity

---

# test.method.notes: yeast display, Sf9 membrane polyspecificity reagent, FACS + sequencing; frameworks hold sequencing errors
quantity.kind: polyreactivity (PSR sort gate)

Use the examples below as a reference point.
sequence.content	polyreactivity (PSR sort gate)
QVQLVESGGGLVQAGGSLRLSCAASGGTFLVNAMGWYRQAPGKERELVATITARVGSTYYADSVKGRFTISRDNAKNTVYLQMNSLKPEDTADYYCAAYPQLWYWDYNYWGQGTQVTVSS	high polyreactivity
QVQLVESGGGLVQAGGSLRLSCAASGRIFVYNAMGWYRQAPGKEREFVASINWSGSSTYADSVKGRFTISRDNAKNTVYLQMNSLKQEDTAVYYCAARRWRYEAYRSQYDYGYWGQGTQVTVSS	low polyreactivity
QVQLVESGGGLVQAGGSLRLSCAASGSTFFGYDMGWYRQAPGKERELVASINSGGSTYFADSEKGRFTISRDNPKNTVYLQMNSLKPEDTAVYYCAARPSYLYPYDRTGEYDYWGQGTQVTVSS	high polyreactivity
QVQLVESGGGLVQAGGSLRLSCAASGNSFSQYAMGWYRQAPGKERELVATISKSSGSTYYADSVKGRFTISRDNAKNTVYLQMNSLKPEDTAVYSCNAVSSDVYHHLGVLFFSTWYDYWGQGTQVTLSS	low polyreactivity

Ask: Requested read-out: polyreactivity (PSR sort gate). Entry: QVQLVESGGGLVQAGGSLRLSCAASGSTFRSYAMGWYIQAPGKERELVARISYRTGSTYYADSVKGRFTISRDNAKNTVYLQMNSLKPEDTAVYYCATRGSYVGGLYDYWGQGTQVTVSS
Result: high polyreactivity

Ask: Same for QVQLVESGGGLVQAGGSLRLSCAASGFIFSSNAMGWYRQAPGKERELVARITWSDGSTYYADSVKGRFTISRDNAKNTVYLQMNSLKPEDTAAYYCAKGRDATHYEYYLYSMDYWGQGTQVTVSS
Result: low polyreactivity

Ask: Same for QVQLVESGGGLVQAGGSLRLSCAASGSTLVIYAMGWYRQAPGKERELVAAINFSDGSTSYADSVKGRFTISRDNSKTTVYFQMNSLKPEDTAVYYWGQGTQVTVSS
Result: low polyreactivity

Ask: Same for QVQLVESGGGLVQAGGSLRLSCAASGSIFDVYAMGWYRQAPGKERELVAAITFDGGSTYYADSVKGRFTISRDNAKNTVYLQMNSLKPEDTAVYDCNAEFYFLWDWQSFDYWGQGTQVTVSS
Result: high polyreactivity

Ask: Same for QVQLVESGGGLVQAGGSLRLSCAASGFIFTGNAMGWYRQAPGKERELVAAISKRGGRTYYADSVKGRFTISRDNAKNTVYLQMNSLKPEDTAVYYCAAVGYAYTYAEYYYWGQGTQVTVSS
Result: high polyreactivity

Ask: Same for QVQLVESGGGLVQAGGSLRLSCAASGYILRSNAMGWYRQAPGKEREFVAAITYSGGSTYYADSEKGRFTISLDNAMNSVYLQMNSLKPEDTAVYYCAKTTRYQRGYGYWGQGTQVTVSS
Result: low polyreactivity

Ask: Same for QVQLVESGGGLVQAGGSLRLSCAASGSIFGWYTMGWYRQAPGKERELVAAITWRGGTTYYADSVKGRFTISRDNAKNTVYLQMNSLKPEDTAVYYCATTRYPRSYQEFGYWGQGTQVTVSS
Result: high polyreactivity

---

# test.method.notes: yeast display, Sf9 membrane polyspecificity reagent, FACS + sequencing; frameworks hold sequencing errors
quantity.kind: polyreactivity (PSR sort gate)

sequence.content	measured
QVQLVESGGGLVQAGGSLRLSCAASGSIFRNNAMGWYRQAPGKERELVASITRRGGSTYYADSVKGRFTISRDNAKNTVYLQMNSLKPEDTAVYYCAATTQHRYKLNYWGQGTQVTVSS	high polyreactivity
QVQLVESGGGLVQAGGSLRLSCAASGGIFFPNAMGWYRQAPGKERELVAAISWSAGSTYYADSVKGRFTISRDNAKNTVYLQMNSLKPEDTAVYYCAAAGSNYTVWYGYYYWGQGTQVTVSS	low polyreactivity
QVQLVESGGGLVQAGGSLRLSCAASGITFIRYAMGWYRQAPGKERELVAAIDWDGSSTYYADSVKGRFTISRDNAKNTGYLQMNSLKPEDTSVYYCNTDYTGPDGTDDYDYWGQGTQVTVSS	low polyreactivity
QVQLVESGGGLVQAGGSLRLSCAASGFIFTYYAMGWFRQAPGKERELVAVISWSGGTTYYADSVKGRFTISRDNAKNTVYLQMNSLKPEDTAVFYCNARSLAKLPRSSVRVEYDYWGQGTQVTLSS	low polyreactivity
QVHLVESGGGFVQAGGSLRLSCAASGSICGSYAMGWYRQAPGKERELVAAISKSGGNTYYADSVKGRFTISRDNAKNTVYLQMNSVKPEDTAVYYCAAYGFYRWRGYDYSGQGTQVTVSS	high polyreactivity
QVQLVESGGGLVQAGGSLRLSCAASGSILGYYGMGWYRHAPGKERELVAAISSSCNTNYADSVKGRFTISRDNAKNTVYLQMMSLKPEDTAVYYCAASFQYVAYYLYDYWGQGTQVTVSS	low polyreactivity
QVQLVESGGGLVQAGGILRLSCAASGRTFFSNAMGWYRQAPGKEREFVAAISNGDNTYYADSVKGRFTISSDNAKNTVYLQMNSLKPDDTAVYYCAADQYWSWIYYPVVEYDYWGLGTQVTVSS	low polyreactivity
QGQLVESGGGLGQAGGSLRLSCAASGSIFQPNDMGWYRQAPGKERELVATISTGGTTNYADSVKGRFTISRDNAKNTVYLQMNSLKPDDTAVYYCATDRTFTISNYDYWGQGTQVTVSS	low polyreactivity
QVQLVESGGGLVQAGGSLRLSCAASGSTLSINAMGGYRQAAGKERELVAGITYSGGSEYYADSVKGRFSISRDNAKNNVYLQMNSMKPEDTAVYYCNKASGVYYGHLDYWRQGTQVTVSS	low polyreactivity
QVQLVESGGGLVQAGGRLRLSCAASGRTFDVYAMVWYRQAPGKERELVAAISKRGGSTYYADSVKGRFTISRDNAKNTVYLQMNSLKPEDTAVYYCNAYQTGWKGYDYWGQGTQVTVSS	high polyreactivity

Now consider a different sequence.
Ask: Requested read-out: polyreactivity (PSR sort gate). Entry: QVQLVETGGVLDQAGGSLRLSCAASGRIFWANAMGWYRQAPGKERELVAAISYSGVSTYYADSVKGRFTSSRDNAKNTVYLQMNSLKPEDTAVYYCAADRYRKYYYWGQGTQVTVSS
Result: high polyreactivity
